Please respond with reported Minimum inhibitory concentration for every item in the list.
test system: Streptococcus pneumoniae clinical strains; format: cell-based; set-up: unit: μg/ml; details: Streptococcus pneumoniae clinical strain 1; microdilution, Muller Hinton broth-cation adjusted, 0.02% BSA, 0.2% acetic acid
Square brackets hold non-standard residues; d marks the D form. Peptide text beside a SMILES is read from it.
Could you keep your reply to the number by itself?

Enquiry: Report Minimum inhibitory concentration for CC(C)C[C@@H](NC(=O)[C@H](N)CCCNC(=N)N)C(=O)N[C@H](CCCCN)C(=O)N[C@H](Cc1c[nH]c2ccccc12)C(=O)N[C@H](Cc1ccccc1)C(=O)N[C@H](CC(C)C)C(=O)N[C@H](CC(C)C)C(=O)N[C@H](Cc1ccccc1)C(=O)N[C@H](CCCNC(=N)N)C(=O)N[C@H](CCCCN)C(=O)N[C@H](CCCNC(=N)N)C(=O)O [Chain308D] (H-[dR][dL][dK][dW][dF][dL][dL][dF][dR][dK][dR]-OH)
Return: 8

Enquiry: Supply reported Minimum inhibitory concentration belonging to this compound: CC(C)C[C@@H](NC(=O)[C@H](N)CCCCN)C(=O)N[C@H](CCCCN)C(=O)N[C@H](Cc1c[nH]c2ccccc12)C(=O)N[C@H](Cc1ccccc1)C(=O)N[C@H](Cc1c[nH]c2ccccc12)C(=O)N[C@H](CC(C)C)C(=O)N[C@H](Cc1ccccc1)C(=O)N[C@H](CCCCN)C(=O)N[C@H](CCCCN)C(=O)N[C@H](CCCNC(=N)N)C(=O)O [Chain311D] (H-[dK][dL][dK][dW][dF][dW][dL][dF][dK][dK][dR]-OH)
Return: 16

Enquiry: Complete the entry with Minimum inhibitory concentration for CC(C)C[C@@H](NC(=O)[C@H](N)CCCNC(=N)N)C(=O)N[C@H](CCCCN)C(=O)N[C@H](Cc1c[nH]c2ccccc12)C(=O)N[C@H](Cc1ccccc1)C(=O)N[C@H](Cc1c[nH]c2ccccc12)C(=O)N[C@H](CC(C)C)C(=O)N[C@H](Cc1ccccc1)C(=O)N[C@H](CCCNC(=N)N)C(=O)N[C@H](CCCCN)C(=O)N[C@H](CCCNC(=N)N)C(=O)O [Chain307D] (H-[dR][dL][dK][dW][dF][dW][dL][dF][dR][dK][dR]-OH)
Return: 4

###

test system: Enterobacter cloacae clinical strains; type: cell-based; parameters: unit: μg/ml; settings: Enterobacter cloacae clinical strain 5; microdilution, Muller Hinton broth-cation adjusted, 0.02% BSA, 0.2% acetic acid
Square brackets hold non-standard residues; d marks the D form. Peptide text beside a SMILES is read from it.
attribute_measured: Minimum inhibitory concentration
Just the number, please, no unit after it.

Enquiry: Read the entry CC(C)C[C@@H](NC(=O)[C@H](N)CCCNC(=N)N)C(=O)N[C@H](CCCCN)C(=O)N[C@H](CCCNC(=N)N)C(=O)N[C@H](Cc1c[nH]c2ccccc12)C(=O)N[C@H](CCCNC(=N)N)C(=O)N[C@H](CC(C)C)C(=O)N[C@H](Cc1ccccc1)C(=O)N[C@H](CCCNC(=N)N)C(=O)N[C@H](CCCCN)C(=O)N[C@H](CCCNC(=N)N)C(=O)O [Chain306D] (H-[dR][dL][dK][dR][dW][dR][dL][dF][dR][dK][dR]-OH) and write its reported Minimum inhibitory concentration.
Return: 16

Enquiry: Answer with the recorded Minimum inhibitory concentration for the molecule listed here: CC(C)C[C@@H](NC(=O)[C@@H](Cc1c[nH]c2ccccc12)NC(=O)[C@@H](Cc1ccccc1)NC(=O)[C@@H](Cc1c[nH]c2ccccc12)NC(=O)[C@@H](CCCCN)NC(=O)[C@@H](CCCNC(=N)N)NC(=O)[C@H](N)Cc1c[nH]c2ccccc12)C(=O)N[C@H](Cc1ccccc1)C(=O)N[C@H](CCCCN)C(=O)N[C@H](CCCCN)C(=O)N[C@H](CCCNC(=N)N)C(=O)O [Chain309D] (H-[dW][dR][dK][dW][dF][dW][dL][dF][dK][dK][dR]-OH)
Return: 32

Enquiry: In one line, give reported Minimum inhibitory concentration of the entry CC(C)C[C@@H](NC(=O)[C@H](N)CCCNC(=N)N)C(=O)N[C@H](CCCCN)C(=O)N[C@H](Cc1c[nH]c2ccccc12)C(=O)N[C@H](Cc1ccccc1)C(=O)N[C@H](CC(C)C)C(=O)N[C@H](CC(C)C)C(=O)N[C@H](Cc1ccccc1)C(=O)N[C@H](CCCNC(=N)N)C(=O)N[C@H](CCCCN)C(=O)N[C@H](CCCNC(=N)N)C(=O)O [Chain308D] (H-[dR][dL][dK][dW][dF][dL][dL][dF][dR][dK][dR]-OH) .
Return: 2

Enquiry: Hello, please tell me recorded Minimum inhibitory concentration for this one: CC[C@@H](C)[C@@H](NC(=O)[C@@H](Cc1c[nH]c2ccccc12)NC(=O)[C@H](N)CCCCN)C(=O)N[C@@H](C(=O)N[C@H](Cc1c[nH]c2ccccc12)C(=O)N[C@H](CCCNC(=N)N)C(=O)N[C@H](Cc1c[nH]c2ccccc12)C(=O)N[C@H](CCCNC(=N)N)C(=O)N[C@H](Cc1ccccc1)C(=O)N[C@H](CCCCN)C(=O)N[C@H](CCCNC(=N)N)C(=O)O)C(C)C [Chain201D] (H-[dK][dW][dI][dV][dW][dR][dW][dR][dF][dK][dR]-OH)
Return: 1

Enquiry: For CC(C)C[C@@H](NC(=O)[C@H](N)CCCNC(=N)N)C(=O)N[C@H](CCCCN)C(=O)N[C@H](Cc1c[nH]c2ccccc12)C(=O)N[C@H](Cc1ccccc1)C(=O)N[C@H](Cc1c[nH]c2ccccc12)C(=O)N[C@H](CC(C)C)C(=O)N[C@H](Cc1ccccc1)C(=O)N[C@H](CCCNC(=N)N)C(=O)N[C@H](CCCCN)C(=O)N[C@H](CCCNC(=N)N)C(=O)O [Chain307D] (H-[dR][dL][dK][dW][dF][dW][dL][dF][dR][dK][dR]-OH) , write its Minimum inhibitory concentration.
Return: 4
